# assay system: Ephrin type-A receptor 2 (Mus musculus, UniProt Q03145)
# Sequence (Q03145 whole entry): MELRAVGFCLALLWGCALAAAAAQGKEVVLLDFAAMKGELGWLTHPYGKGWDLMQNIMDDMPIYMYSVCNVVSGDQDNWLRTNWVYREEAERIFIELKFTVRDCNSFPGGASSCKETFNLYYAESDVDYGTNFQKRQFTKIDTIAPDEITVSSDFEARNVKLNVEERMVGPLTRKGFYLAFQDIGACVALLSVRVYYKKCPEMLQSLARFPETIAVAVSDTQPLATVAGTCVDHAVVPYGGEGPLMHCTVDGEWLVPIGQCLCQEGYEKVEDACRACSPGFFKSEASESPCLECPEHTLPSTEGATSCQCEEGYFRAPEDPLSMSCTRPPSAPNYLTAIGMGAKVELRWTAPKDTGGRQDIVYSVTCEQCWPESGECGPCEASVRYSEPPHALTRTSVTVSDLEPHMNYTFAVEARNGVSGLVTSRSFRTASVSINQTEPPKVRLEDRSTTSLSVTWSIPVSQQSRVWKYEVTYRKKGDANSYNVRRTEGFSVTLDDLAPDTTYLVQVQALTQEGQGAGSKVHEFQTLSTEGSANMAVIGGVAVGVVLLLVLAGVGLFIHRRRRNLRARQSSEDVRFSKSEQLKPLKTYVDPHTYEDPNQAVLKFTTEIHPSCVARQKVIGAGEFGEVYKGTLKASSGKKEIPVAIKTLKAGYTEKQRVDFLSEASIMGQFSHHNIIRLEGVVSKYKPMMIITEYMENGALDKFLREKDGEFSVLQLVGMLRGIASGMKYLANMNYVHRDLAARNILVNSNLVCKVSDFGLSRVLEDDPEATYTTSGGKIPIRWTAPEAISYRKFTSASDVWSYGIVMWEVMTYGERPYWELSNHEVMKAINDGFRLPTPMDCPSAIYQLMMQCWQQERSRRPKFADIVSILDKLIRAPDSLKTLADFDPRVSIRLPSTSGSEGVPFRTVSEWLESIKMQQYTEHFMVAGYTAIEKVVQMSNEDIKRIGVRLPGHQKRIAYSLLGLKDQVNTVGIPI
# protocol: Displacement of biotinylated Fc-tagged ephrin-A1 from C/N-terminal 6-His tagged mouse recombinant EphA2 (Ala22 to Ala535 residues) preincubated for 1 hr followed by ephrin-A1-Fc addition and measured after 4 to 5 hrs by ELISA assay
Examples of compounds with documented pIC50 follow.
Answer as the number alone; pIC50 is minus log10 of concentration in mol/L.

| line notation | readout | reported value |
| --- | --- | --- |
| C[C@H](CCC(=O)N[C@H](CC(=O)O)Cc1cn(S(=O)(=O)c2cccc(-c3ccccc3)c2)c2ccccc12)[C@H]1CC[C@H]2[C@@H]3CC=C4C[C@@H](O)CC[C@]4(C)[C@H]3CC[C@]12C | pIC50 | 4.80 |

Query `C[C@H](CCC(=O)N[C@H](CC(=O)O)Cc1cn(S(=O)(=O)c2cccc(N)c2)c2ccccc12)[C@H]1CC[C@H]2[C@@H]3CC=C4C[C@@H](O)CC[C@]4(C)[C@H]3CC[C@]12C` yields pIC50 of 5.25

Query `C[C@H](CCC(=O)N[C@H](CC(=O)O)Cc1cn(S(=O)(=O)c2ccsc2)c2ccccc12)[C@H]1CC[C@H]2[C@@H]3CC=C4C[C@@H](O)CC[C@]4(C)[C@H]3CC[C@]12C` yields pIC50 of 5.26

Query `Cc1cccc(S(=O)(=O)n2cc(C[C@@H](CC(=O)O)NC(=O)CC[C@@H](C)[C@H]3CC[C@H]4[C@@H]5CC=C6C[C@@H](O)CC[C@]6(C)[C@H]5CC[C@]34C)c3ccccc32)c1` yields pIC50 of 4.62
